System: Streptococcus pneumoniae
ASSAY DETAILS: Antibacterial activity against erm(B) and mef(E)-positive Streptococcus pneumoniae isolate CC-6B by broth microdilution method
Items are presented alongside their recorded MIC.
The answer is to be given in µg/mL; state only the numeric part.

Guide cases for MIC, answers given:
CO/N=C(\C(=O)N[C@@H]1C(=O)N2C(C(=O)O)=C(COC(C)=O)CS[C@H]12)c1csc(N)n1    0.12
CCC[C@@H]1C[C@@H](C(=O)N[C@@H]([C@H]2O[C@H](SC)[C@H](O)[C@@H](O)[C@H]2O)[C@H](C)Cl)N(C)C1    32
CN(C)[C@@H]1C(O)=C(C(N)=O)C(=O)[C@@]2(O)C(O)=C3C(=O)c4c(O)cccc4[C@@](C)(O)[C@H]3C[C@@H]12    4
CC[C@H]1OC(=O)[C@H](C)[C@@H](O[C@H]2C[C@@](C)(OC)[C@@H](O)[C@H](C)O2)[C@H](C)[C@@H](O[C@@H]2O[C@H](C)C[C@H](N(C)C)[C@H]2O)[C@](C)(O)C[C@@H](C)C(=O)[C@H](C)[C@@H](O)[C@]1(C)O    32

Now examine the next entry.
Which measured MIC value corresponds to CC1(C)S[C@@H]2[C@H](NC(=O)Cc3ccccc3)C(=O)N2[C@H]1C(=O)O ?
0.12
